B1: F1*; the commonest letter at each place (parent)
chain: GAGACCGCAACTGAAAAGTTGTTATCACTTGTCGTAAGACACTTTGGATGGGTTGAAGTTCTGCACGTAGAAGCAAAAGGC

# Variants of: B1
# Assay Explanation: fraction ligated after 30 min (ligated reads / total reads); higher = more ligase activity
# Condition Info: with F1*sub RNA substrate (template-directed ligation), 42 °C
Measured fraction ligated of individual entries

[[record]]
alteration = "A41T T44C"
measured_quantity = "fraction ligated"
result = 0.806

[[record]]
alteration = "T23A G47A"
measured_quantity = "fraction ligated"
result = 0.783


// next item, fraction ligated requested
Looking for the measured fraction ligated of C28G T29C , can you help?
0.814

The values you see were collected from the supplement of paper PMC6755084.
